- assay.text: in vivo
- test.parameters: male, Swiss Webster, mouse, po, 1 mg
Where a SMILES comes first, the peptide text is derived from it. [ ]: non-standard residue; d: D form.
value.kind: F rel

Quick note, F rel for CC(C)C[C@@H](NC(=O)[C@H](CO)NC(=O)[C@H](CS)NC(=O)[C@@H](N)CO)C(=O)N1CCC[C@H]1C(=O)N[C@@H](CCC(N)=O)C(=O)N[C@H](C(N)=O)[C@@H](C)O [[D-Leu-4]OB3, Ser-Cys-Ser-D-Leu-Pro-Gln-Thr] (H-SCS[dL]PQT-NH2; N-terminus assumed) landed at 47.3%
